# Tested on: KM12 colon
# experiment-description: NCI tumour cell line growth inhibition, 48 h; in the data active = GI50 below about 0.43 µM; inactive = the rest
Your reply should match one of these outcome classes. class 1 = active, class 0 = inactive

compound	assigned-label
O=c1ccc2nc(C(F)(F)F)nn(-c3ccccc3)c-2c1	class 0
COc1ccc2c(c1)NC(=O)CN2c1nc(NC2CC2)nc2ccccc12	class 1
C[CH2][Pb]([CH2]C)([CH2]C)[O]C(=O)COc1ccccc1	class 0
O=[N+]([O-])c1ccc2c(c1)C(=NO)c1cc([N+](=O)[O-])ccc1-2	class 0
O=Cc1cn(Cc2ccc(Cl)cc2)c2ccccc12	class 0

Query: Tell me the recorded outcome of this test for "C=CC(=O)N1C[C@H](COc2nc(Nc3cnn(C)c3)nc3[nH]cc(Cl)c23)[C@@H](OC)C1" .
Response: class 1

Query: Tell me the recorded outcome of this test for "Oc1cccc(-c2nc(-c3n[nH]c(=S)n3-c3ccccc3)cc3c2[nH]c2ccccc23)c1" .
Response: class 0

Query: Tell me the recorded outcome of this test for "O=C(Nc1cccc(Cl)c1)Nc1nccs1" .
Response: class 0

Query: Tell me the recorded outcome of this test for "OCc1ccc(N(Cc2ccc(F)cc2)CC2CC2)cc1Cl" .
Response: class 0

Query: Tell me the recorded outcome of this test for "Cc1cc(Oc2ccccc2)ccc1Nc1ncnc2ccc(-c3cnc(Cl)c(NS(C)(=O)=O)c3)cc12" .
Response: class 0

Query: Tell me the recorded outcome of this test for "CCCCCCCC(=O)SCC/C=C/[C@@H]1CC(=O)NCc2cccc(n2)CN(Cc2ccc3ccccc3c2)CC(=O)N[C@@H](C(C)C)C(=O)O1" .
Response: class 0

Query: Tell me the recorded outcome of this test for "CN(C)CCCn1c2c(c3ccc(-c4ccn[nH]4)cc3c1=O)C(=O)c1ccccc1-2" .
Response: class 0

Query: Tell me the recorded outcome of this test for N#CC1=C(N)Oc2c(ccc3ccccc23)C1c1cccs1 (stereo not given) .
Response: class 1

Query: Tell me the recorded outcome of this test for C[C@]12CCC(=O)CC1CC[C@@H]1C2CC[C@@]2(C)C1CC[C@@H]2OC(=O)CC[Se][Se]CCC(=O)O[C@H]1CCC2[C@@H]3CCC4CC(=O)CC[C@]4(C)C3CC[C@@]21C (stereo not given in full) .
Response: class 0

Query: Tell me the recorded outcome of this test for "COC(=O)C1=CN(CC2=CC(=O)C(C)=CC2=O)C=C(C(=O)OC)C1c1cc(OC)ccc1OC" .
Response: class 0

====

# System: NCI-H522 lung
# experiment-description: NCI tumour cell line growth inhibition, 48 h
Cut-off 5 µM on TGI, inclusive. At or above means TRUE; below means FALSE.

molecule	assigned-label
Cc1ccc(NC(=O)SCCC(=O)O)cc1	TRUE
CCC1(O)CC(OC2CC(N(C)C)C(OC3CC(O)C(OC4CCC(=O)C(C)O4)C(C)O3)C(C)O2)c2c(cc3c(c2O)C(=O)c2c(O)ccc(O)c2C3=O)C1C(=O)OC (stereo not given)	FALSE
O=C1N[C@@H]2[C@@H](O)[C@@H](O)[C@H](O)C[C@H]2c2cc3c(c(O)c21)OCO3	FALSE
CCOP(=O)(/C=C/n1ccc(N)nc1=O)OCC	TRUE
O=C1C(Cl)N(c2ccc(Cl)cc2Cl)C1c1c[nH]c2ccccc12 (stereo not given)	TRUE

Query: Quick check: does Cc1cc(C2CC(O)C(CO)O2)c(Cl)cc1Cl (stereo not given) have TGI greater than or equal to 5 µM?
Response: TRUE

Query: Quick check: does "Cc1nn(CCO)c(C)c1N=[N+]([O-])c1c(C)nn(CCO)c1C" have TGI greater than or equal to 5 µM?
Response: FALSE

Query: Quick check: does c1ccc(C(NC2CCCCC2NCCNC2CCCCC2NC(c2ccccc2)(c2ccccc2)c2ccccc2)(c2ccccc2)c2ccccc2)cc1 (stereo not given) have TGI greater than or equal to 5 µM?
Response: TRUE

Query: Quick check: does CCOC(=O)C1=C(OC(OCC)C(C)[Se]c2ccccc2)CCC1 (stereo not given) have TGI greater than or equal to 5 µM?
Response: TRUE
